TARGET_OR_SYSTEM: TBK1 (Homo sapiens)
Construct: purchased Promega V3991
METHOD_NOTES: TBK1 inhibition, ADP-Glo Kinase Assay
Type: biochemical
REPORTED_CONDITIONS: luminometer
MEASUREMENT_KIND: log10 IC50 (log10 of the value in µM)
In plain terms, each number is the log10 of measured IC50 in µM.

Please review the entries below; each comes with its answer.
Query: Report log10 IC50, nothing else, for this compound: CC(CCO)NC(=O)c1ccc2[nH]nc(NC(=O)c3ccc(N4CCN(C)CC4)cc3)c2c1 (centres unmarked) [Example 93]
Result: -0.72

Query: Report log10 IC50, nothing else, for this compound: CC(NC(=O)c1ccc2[nH]nc(NC(=O)c3ccc(N4CCOCC4)cc3)c2c1)c1cccnc1 (centres unmarked) [Example 52]
Result: -1.85

Query: Report log10 IC50, nothing else, for this compound: CN1CCN(c2ccc(C(=O)Nc3n[nH]c4ccc(C(=O)NC(c5ccccn5)C5CC5)cc34)cc2)CC1 (centres unmarked) [Example 140]
Result: -1.08

Query: Report log10 IC50, nothing else, for this compound: COCCCNc1ccc(C(=O)Nc2n[nH]c3ccc(C(=O)NCc4cccs4)cc23)cc1 [Example 151]
Result: -2.10

Query: Report log10 IC50, nothing else, for this compound: CN1CCN(c2ccc(C(=O)Nc3n[nH]c4ccc(C(=O)NCC5CCCC5)cc34)cc2)CC1 [Example 90, 2,2,2-trifluoroacetate]
Result: -1.89

More entries:
Query: Report log10 IC50, nothing else, for this compound: O=C(NCC1CC1)c1ccc2[nH]nc(NC(=O)c3ccc(F)cc3)c2c1 [Example 23]
Result: 0.15

Query: Report log10 IC50, nothing else, for this compound: CC(NC(=O)c1ccc2[nH]nc(NC(=O)c3ccc(N4CCN(C)CC4)cc3)c2c1)c1ccccn1 (centres unmarked) [Example 128]
Result: -1.55

Query: Report log10 IC50, nothing else, for this compound: O=C(Nc1n[nH]c2ccc(C(=O)NC(c3cccnc3)C3CC3)cc12)c1ccc(N2CCOCC2)cc1 (centres unmarked) [Example 142]
Result: -1.17

* * *

TARGET_OR_SYSTEM: TBK1 (Homo sapiens)
Construct: purchased Promega V3991
METHOD_NOTES: TBK1 inhibition, ADP-Glo Kinase Assay
Format: biochemical
REPORTED_CONDITIONS: luminometer
Counter-ions that a name gives are not always drawn.
Classify by IC50. Ranges: bucket A (below 0.03 µM), bucket B (0.03 µM to below 0.1 µM), bucket C (0.1 µM or more)

Reference set (5 entries):
Query: Form: Item = O=C(NCc1cncs1)c1ccc2[nH]nc(NC(=O)c3ccc(F)cc3)c2c1 [Example 27, 2,2,2-trifluoroacetate] ; Class = ?
Result: bucket C

Query: Form: Item = O=C(Cc1cccs1)Nc1ccc2[nH]nc(NC(=O)c3ccc(N4CCOCC4)cc3)c2c1 [Example 144] ; Class = ?
Result: bucket B

Query: Form: Item = O=C(Nc1n[nH]c2ccc(C(=O)NC3(c4cccs4)CC3)cc12)c1ccc(F)cc1 [Example 15] ; Class = ?
Result: bucket A

Query: Form: Item = CCCC(NC(=O)c1ccc2[nH]nc(NC(=O)c3ccc(N4CCOCC4)cc3)c2c1)c1cccs1 (stereo not drawn) [Example 58] ; Class = ?
Result: bucket B

Query: Form: Item = O=C(NCc1cccs1)c1ccc2[nH]nc(NC(=O)c3ccc(NC(=O)C4CCC4)cc3)c2c1 [Example 206] ; Class = ?
Result: bucket A

More entries:
Query: Form: Item = O=C(NCc1cccs1)c1ccc2[nH]nc(NC(=O)c3ccc(F)cc3F)c2c1 [Example 35] ; Class = ?
Result: bucket C

Query: Form: Item = COc1ccc(C(=O)Nc2n[nH]c3ccc(C(=O)N(C)Cc4cccs4)cc23)cc1 [Example 4] ; Class = ?
Result: bucket C

Query: Form: Item = CC[C@H](NC(=O)c1ccc2[nH]nc(NC(=O)c3ccc(N4CCN(C)CC4)cc3)c2c1)c1cccs1 [Example 111] ; Class = ?
Result: bucket A

Query: Form: Item = CCC(NC(=O)c1ccc2[nH]nc(NC(=O)c3ccc(N4CC(C)OC(C)C4)cc3)c2c1)c1cccs1 (stereo not drawn) [Example 96, 2,2,2-trifluoroacetate] ; Class = ?
Result: bucket A

Query: Form: Item = CC1CN(c2ccc(C(=O)Nc3n[nH]c4ccc(C(=O)NCc5cccs5)cc34)cc2)CC(C)N1 (stereo not drawn) [Example 89, 2,2,2-trifluoroacetate] ; Class = ?
Result: bucket A

Query: Form: Item = O=C(NCCN1CCOCC1)c1cc2[nH]nc(-c3ccc(F)cc3)c2s1 [Example 242] ; Class = ?
Result: bucket C

Query: Form: Item = COc1ccc(C(=O)Nc2n[nH]c3ccc(C(=O)NCc4cccs4)cc23)nc1 [Example 8, Hydrochloride] ; Class = ?
Result: bucket B

Query: Form: Item = Cc1noc(CNC(=O)c2ccc3[nH]nc(NC(=O)c4ccc(N5CCN(C)CC5)cc4)c3c2)n1 [Example 101, 2,2,2-trifluoroacetate] ; Class = ?
Result: bucket C

Query: Form: Item = CCC(NC(=O)c1ccc2[nH]nc(NC(=O)c3ccc(N4CCN(C(C)=O)CC4)cc3)c2c1)c1ccsc1 (stereo not drawn) [Example 209] ; Class = ?
Result: bucket A

Query: Form: Item = Cc1cc(CNC(=O)c2ccc3[nH]nc(NC(=O)c4ccc(N5CCOCC5)cc4)c3c2)ccn1 [Example 69] ; Class = ?
Result: bucket C

* * *

TARGET_OR_SYSTEM: TBK1 (Homo sapiens, UniProt Q9UHD2)
Construct: purchased Promega V3991
Sequence (Q9UHD2 whole entry): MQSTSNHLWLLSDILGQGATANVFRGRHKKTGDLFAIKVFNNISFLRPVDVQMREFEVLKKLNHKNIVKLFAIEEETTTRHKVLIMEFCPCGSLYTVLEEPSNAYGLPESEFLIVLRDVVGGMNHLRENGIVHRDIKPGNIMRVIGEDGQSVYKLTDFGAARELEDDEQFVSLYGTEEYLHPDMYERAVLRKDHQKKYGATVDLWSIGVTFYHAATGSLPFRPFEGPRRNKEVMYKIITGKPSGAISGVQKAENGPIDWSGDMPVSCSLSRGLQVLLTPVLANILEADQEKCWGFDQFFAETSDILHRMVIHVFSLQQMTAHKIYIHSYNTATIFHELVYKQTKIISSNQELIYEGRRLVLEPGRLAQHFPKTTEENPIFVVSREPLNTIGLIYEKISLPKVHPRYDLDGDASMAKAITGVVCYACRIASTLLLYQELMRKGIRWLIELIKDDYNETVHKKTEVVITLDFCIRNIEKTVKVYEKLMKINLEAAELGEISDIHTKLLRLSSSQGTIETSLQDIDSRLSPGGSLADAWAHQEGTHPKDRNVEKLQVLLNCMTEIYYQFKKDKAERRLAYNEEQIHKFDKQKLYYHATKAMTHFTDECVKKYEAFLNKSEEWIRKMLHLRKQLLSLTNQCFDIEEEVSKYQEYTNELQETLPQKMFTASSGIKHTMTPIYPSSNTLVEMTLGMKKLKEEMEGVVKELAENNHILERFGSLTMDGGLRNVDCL
METHOD_NOTES: TBK1 inhibition, ADP-Glo Kinase Assay
Type: biochemical
REPORTED_CONDITIONS: luminometer
Rule: IC50 below 0.002 µM gives True, anything at or above gives False.

Query: Please indicate whether the reported IC50 of CN1CCN(c2ccc(C(=O)Nc3n[nH]c4ccc(C(=O)NC5(c6ccccc6)CC5)cc34)cc2)CC1 is strictly below 0.002 µM.
Result: True

* * *

TARGET_OR_SYSTEM: IKKε (Homo sapiens)
Construct: purchased Invitrogen PR8031B
Sequence (Q14164 whole entry): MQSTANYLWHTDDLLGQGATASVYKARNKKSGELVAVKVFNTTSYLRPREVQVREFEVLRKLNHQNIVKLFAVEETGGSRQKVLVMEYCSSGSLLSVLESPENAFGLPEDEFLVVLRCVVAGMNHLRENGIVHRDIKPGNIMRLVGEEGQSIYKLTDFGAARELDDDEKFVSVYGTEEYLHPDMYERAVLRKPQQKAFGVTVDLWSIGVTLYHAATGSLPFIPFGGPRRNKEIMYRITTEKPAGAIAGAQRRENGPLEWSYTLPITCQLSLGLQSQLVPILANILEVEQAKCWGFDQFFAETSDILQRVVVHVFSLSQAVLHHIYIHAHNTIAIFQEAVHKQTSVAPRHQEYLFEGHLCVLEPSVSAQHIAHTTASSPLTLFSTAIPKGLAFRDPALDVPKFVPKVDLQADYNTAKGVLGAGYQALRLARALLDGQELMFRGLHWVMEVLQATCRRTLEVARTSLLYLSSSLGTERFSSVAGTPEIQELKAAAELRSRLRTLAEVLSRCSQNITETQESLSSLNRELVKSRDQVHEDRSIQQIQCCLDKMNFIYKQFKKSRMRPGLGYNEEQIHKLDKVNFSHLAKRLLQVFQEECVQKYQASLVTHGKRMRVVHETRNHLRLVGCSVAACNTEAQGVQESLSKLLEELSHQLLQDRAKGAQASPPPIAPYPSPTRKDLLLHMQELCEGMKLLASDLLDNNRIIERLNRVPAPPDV
METHOD_NOTES: IKKε inhibition, ADP-Glo Kinase Assay
Assay type: biochemical
REPORTED_CONDITIONS: luminometer
Structures can show the parent of a compound that is named as a salt.
Rule: IC50 below 0.05 µM gives true, anything at or above gives false.

Reference set (2 entries):
Query: Please indicate whether the reported IC50 of C[C@H]1CN(c2ccc(C(=O)Nc3n[nH]c4ccc(C(=O)NC5(c6ccccc6)CC5)cc34)cc2)CCN1 is strictly below 0.05 µM.
Result: true

Query: Please indicate whether the reported IC50 of CC1CN(c2ccc(C(=O)Nc3n[nH]c4ccc(C(=O)NCc5cccs5)cc34)cc2)CC(C)O1 (stereo not shown) [Example 92, 2,2,2-trifluoroacetate] is strictly below 0.05 µM.
Result: false

More entries:
Query: Please indicate whether the reported IC50 of CC(NC(=O)c1ccc2[nH]nc(NC(=O)c3ccc(N4CCN(C)CC4)cc3)c2c1)c1cncs1 (stereo not shown) is strictly below 0.05 µM.
Result: true

Query: Please indicate whether the reported IC50 of COc1ccc(C(=O)Nc2n[nH]c3ccc(C(=O)NCc4cccs4)cc23)nc1 [Example 8, Hydrochloride] is strictly below 0.05 µM.
Result: false

Query: Please indicate whether the reported IC50 of CN1CCN(c2ccc(C(=O)Nc3n[nH]c4ccc(C(=O)NC(c5cccnc5)C5CC5)cc34)cc2)CC1 (stereo not shown) is strictly below 0.05 µM.
Result: false

Query: Please indicate whether the reported IC50 of O=C(NCc1nccs1)c1ccc2[nH]nc(NC(=O)c3ccc(N4CCOCC4)cc3)c2c1 [Example 104, 2,2,2-trifluoroacetate] is strictly below 0.05 µM.
Result: false

Query: Please indicate whether the reported IC50 of CN1CCN(c2ccc(C(=O)Nc3n[nH]c4ccc(C(=O)NCc5ccsc5)cc34)cc2)CC1 is strictly below 0.05 µM.
Result: true

* * *

TARGET_OR_SYSTEM: IKKε (Homo sapiens)
Construct: purchased Invitrogen PR8031B
METHOD_NOTES: IKKε inhibition, ADP-Glo Kinase Assay
Format: biochemical
REPORTED_CONDITIONS: luminometer
Rule: IC50 below 0.3 µM gives TRUE, anything at or above gives FALSE.

Query: Please indicate whether the reported IC50 of O=C(Nc1n[nH]c2ccc(C(=O)NC3(c4cccs4)CC3)cc12)c1ccc(F)cc1 [Example 15] is strictly below 0.3 µM.
Result: TRUE

Query: Please indicate whether the reported IC50 of CN1CCN(c2ccc(C(=O)Nc3n[nH]c4ccc(C(=O)NCc5ccccn5)cc34)cc2)CC1 [Example 85, bis(2,2,2-trifluoroacetate)] is strictly below 0.3 µM.
Result: FALSE

Query: Please indicate whether the reported IC50 of CC(NC(=O)c1ccc2[nH]nc(NC(=O)c3ccc(N4CCN(C)CC4)cc3)c2c1)c1ccsc1 (stereo not shown) [Example 80] is strictly below 0.3 µM.
Result: TRUE

Query: Please indicate whether the reported IC50 of O=C(NCc1cccs1)c1ccc2[nH]nc(NC(=O)c3cccc(N4CCOCC4)c3)c2c1 [Example 156] is strictly below 0.3 µM.
Result: TRUE

More entries:
Query: Please indicate whether the reported IC50 of Cc1ccc(CNC(=O)c2ccc3[nH]nc(NC(=O)c4ccc(F)cc4)c3c2)s1 [Example 19] is strictly below 0.3 µM.
Result: FALSE

Query: Please indicate whether the reported IC50 of CCC(NC(=O)c1ccc2[nH]nc(NC(=O)c3ccc(N4CCNCC4)cc3)c2c1)c1ccccc1 (stereo not shown) [Example 41] is strictly below 0.3 µM.
Result: TRUE

Query: Please indicate whether the reported IC50 of CN1CCN(c2ccc(C(=O)Nc3n[nH]c4ccc(C(=O)NC(C)(C)c5ccccc5)cc34)cc2)CC1 [Example 63] is strictly below 0.3 µM.
Result: TRUE
